# Tested on: Wolbachia pipientis
# Protocol: Anti-Wolbachia Cell-Based Screen
# Format: functional
# Parameters: scale not given: in the data most compounds retested in dose-response had high values
# Details: 5 µM
Hit rate of the full screen: of about 48,000 compounds, about 13,000 (27%) showed an effect of 50% or more. The list shows a part of the results.
Measurement kind: Percent Effect (%)
Give a bare numeral; the unit % is implied.

INPUT: Please give the measured Percent Effect for this molecule: COc1ncccc1CNC(=O)c1c[nH]c(=O)c(Br)c1
OUTPUT: -2.261

More entries:
INPUT: Please give the measured Percent Effect for this molecule: Cc1noc(CN2CCN(C(C)C(=O)NCc3cccs3)CC2)n1 (stereo unspecified)
OUTPUT: 10.97

INPUT: Please give the measured Percent Effect for this molecule: COCc1nc2cc(NCc3cc[nH]n3)ccc2o1
OUTPUT: -2.175

INPUT: Please give the measured Percent Effect for this molecule: O=C(NCCNS(=O)(=O)c1ccc(C(F)(F)F)cc1)c1ccoc1
OUTPUT: 7.368

INPUT: Please give the measured Percent Effect for this molecule: CC(=O)NCC1CCN(Cc2nc(C3CC3)no2)CC1
OUTPUT: 21.76

INPUT: Please give the measured Percent Effect for this molecule: COC(=O)c1ccc(CN2CCN(Cc3nc(C)no3)CC2)s1
OUTPUT: 97.03
